# measured_on: T1, Cre recombinase monomer with Q311R mutation
# T1 chain: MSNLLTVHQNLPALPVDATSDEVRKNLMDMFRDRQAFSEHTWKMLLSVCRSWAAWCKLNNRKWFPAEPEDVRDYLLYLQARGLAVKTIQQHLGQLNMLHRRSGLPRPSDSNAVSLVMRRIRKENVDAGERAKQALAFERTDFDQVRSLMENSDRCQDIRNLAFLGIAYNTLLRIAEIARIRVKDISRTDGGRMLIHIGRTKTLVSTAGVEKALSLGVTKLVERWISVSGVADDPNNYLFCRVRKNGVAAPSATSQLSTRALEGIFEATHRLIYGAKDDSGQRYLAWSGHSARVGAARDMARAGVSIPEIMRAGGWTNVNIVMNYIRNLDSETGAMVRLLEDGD
Quick reference: Median dimer activity (recombination on loxP) of the listed items.
Report the value in % with no unit label.

[in] Give the measured Median dimer activity (recombination on loxP) of Cre recombinase monomer with K201T mutation (protein) MSNLLTVHQNLPALPVDATSDEVRKNLMDMFRDRQAFSEHTWKMLLSVCRSWAAWCKLNNRKWFPAEPEDVRDYLLYLQARGLAVKTIQQHLGQLNMLHRRSGLPRPSDSNAVSLVMRRIRKENVDAGERAKQALAFERTDFDQVRSLMENSDRCQDIRNLAFLGIAYNTLLRIAEIARIRVKDISRTDGGRMLIHIGRTTTLVSTAGVEKALSLGVTKLVERWISVSGVADDPNNYLFCRVRKNGVAAPSATSQLSTRALEGIFEATHRLIYGAKDDSGQRYLAWSGHSARVGAARDMARAGVSIPEIMQAGGWTNVNIVMNYIRNLDSETGAMVRLLEDGD .
[out] 94

[in] Recorded Median dimer activity (recombination on loxP) of Cre recombinase monomer with R173K mutation (protein) MSNLLTVHQNLPALPVDATSDEVRKNLMDMFRDRQAFSEHTWKMLLSVCRSWAAWCKLNNRKWFPAEPEDVRDYLLYLQARGLAVKTIQQHLGQLNMLHRRSGLPRPSDSNAVSLVMRRIRKENVDAGERAKQALAFERTDFDQVRSLMENSDRCQDIRNLAFLGIAYNTLLKIAEIARIRVKDISRTDGGRMLIHIGRTKTLVSTAGVEKALSLGVTKLVERWISVSGVADDPNNYLFCRVRKNGVAAPSATSQLSTRALEGIFEATHRLIYGAKDDSGQRYLAWSGHSARVGAARDMARAGVSIPEIMQAGGWTNVNIVMNYIRNLDSETGAMVRLLEDGD , please.
[out] 84
